Assay: Phase I open-label, parallel-group, single oral dose pharmacokinetic study of dorzagliatin in ESRD and healthy subjects
Format: in vivo, human
Settings: human, plasma, po, 25 mg, Group P1 (ESRD); single 25 mg oral dose, fasted; read-out: AUClast, u, LS mean
PARAMETER_MEASURED: AUC(0-t)

// lookup AUC(0-t) for "CC(C)C[C@@H](C(=O)Nc1ccn(C[C@@H](O)CO)n1)N1CC(Oc2ccccc2Cl)=CC1=O" 0.162 µg·h/mL
